- protocol-text: chemical genetic growth profiling, strain panel (AID 1159580);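 also: tested at 20 µM; growth read once vehicle control cultures reached saturation at 30 °C; 1 = growth at the plate median or of vehicle wells; lower values mean less growth of the strain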
- run-conditions: S. cerevisiae deletion strains, growth OD, locus YAL026C, strain drs2, hits give low values
The campaign covered roughly 5,500 compounds. About 2,000 (36%) were called active. Roughly 18% stayed inconclusive and do not appear here. Some of the results follow.
Please use true (1) for normalized growth under 1 and false (0) for everything else, ties included.

The following molecules have reported results that may help.
molecule	discrete-label
O=C1C(Cl)=C(Cl)C(=O)C(Cl)=C1Cl	true (1)
C=C1C2CC[C@@]3(C)[C@H](c4ccoc4)OC(=O)C[C@]13O[C@H]1CC(=O)C(C)(C)[C@H](C(OC(C)=O)C(=O)OC)[C@@]21C (some centres undefined)	false (0)
O=C(/C=C/c1ccc(O)c(O)c1)OCCc1ccccc1	true (1)

# evaluate next
Prompt: Input O=C(/C=C/c1ccc(O)c(O)c1)OC(Cc1ccc(O)c(O)c1)C(=O)O (centres undefined) ; condition: normalized growth strictly below 1. Does it hold?
Response: false (0)
